test system: Aβ42; assay: Amyloidβ peptide release (Aβ42) assay, AlphaLisa on supernatant of APPswe-HEK cells; format: cell-based; conditions: Homo sapiens, 24 hours incubation with compound, read-out: Ab42 IC50 Ranges
Recorded IC50 by entry

Q: So what does the record say about IC50 for COc1cc(NC(=O)c2nnn3c2CCC[C@@H]3c2ccc(Cl)cc2)ccc1-n1cnc(C)c1 [Example 23] ?
A: ≤ 0.15 µM

Q: So what does the record say about IC50 for COc1cc(NC(=O)c2nnn3c2CCC3c2ccc(F)cc2)ccc1-c1cnn(C)c1 (stereo not shown) [Example 37] ?
A: < 1 µM

Q: So what does the record say about IC50 for COc1cc(C(=O)Nc2nnn3c2CCC3c2ccc(F)cc2)ccc1-n1cnc(C)c1 (stereo not shown) [Example 46] ?
A: 0.5 to 1 µM

Q: So what does the record say about IC50 for COc1cc(Nc2nnn3c2CCCC3c2cccc(C(F)(F)F)c2)ccc1-n1cnc(C)c1 (stereo not shown) [Example 6] ?
A: 0.15 to 0.5 µM
